assay: AUC in Wistar rat at 0.5 mg/kg, iv; format: ADME, organism-based; set-up: dose 0.5 mg/kg, route intravenous; conditions: plasma

{"Input smiles": "COc1ccc2ncc(F)c([C@@H](O)[C@H](O)[C@@H]3CC[C@@H](NCc4cc5c(cn4)OCCS5)CO3)c2n1", "AUC [ng·h/mL]": 959}

----------
Reported inhibition at 0.05 h, 10 µM values for a set of compounds
target: hERG (KCNH2) (Homo sapiens, UniProt Q12809); assay: Inhibition of human ERG expressed in CHO cells at 10 uM after 3 mins by patch clamp assay relative to control; type: cell-based; settings: CHO cells that express human ERG

{"Input smiles": "COc1ccc2nccc(NC(=O)[C@@H]3CC[C@@H](NCc4ccc5c(n4)NC(=O)CS5)CO3)c2n1", "inhibition at 0.05 h, 10 µM [%]": 99}
{"Input smiles": "COc1ccc2nccc(/C=C/[C@@H]3CC[C@@H](NCc4ccc5c(n4)NC(=O)CS5)CO3)c2n1", "inhibition at 0.05 h, 10 µM [%]": 94}
{"Input smiles": "COc1ccc2ncc(F)c([C@@H](O)[C@H](O)[C@@H]3CC[C@@H](NCc4ccc5c(n4)NC(=O)CS5)CO3)c2n1", "inhibition at 0.05 h, 10 µM [%]": 54}
{"Input smiles": "COc1cnc2ccc(F)c([C@@H](O)[C@H](O)[C@@H]3CC[C@@H](NCc4cc5c(nn4)OCCS5)CO3)c2n1", "inhibition at 0.05 h, 10 µM [%]": 0}

Data credit: ChEMBL document CHEMBL2424615
